- assay_text: in vivo
- measurement_parameters: mouse, plasma
readout_name: concentration at 0.08 h

[[record]]
compound = "O=C1CCc2ccc(OCCCCN3CCCN(c4cccc(Cl)c4Cl)CC3)nc2N1 [Compound 3]"
test_result = "70.6 ng/mL"


###

- study_target: hD2 receptors (Homo sapiens (Human), UniProt P14416)
- Sequence (P14416 whole entry): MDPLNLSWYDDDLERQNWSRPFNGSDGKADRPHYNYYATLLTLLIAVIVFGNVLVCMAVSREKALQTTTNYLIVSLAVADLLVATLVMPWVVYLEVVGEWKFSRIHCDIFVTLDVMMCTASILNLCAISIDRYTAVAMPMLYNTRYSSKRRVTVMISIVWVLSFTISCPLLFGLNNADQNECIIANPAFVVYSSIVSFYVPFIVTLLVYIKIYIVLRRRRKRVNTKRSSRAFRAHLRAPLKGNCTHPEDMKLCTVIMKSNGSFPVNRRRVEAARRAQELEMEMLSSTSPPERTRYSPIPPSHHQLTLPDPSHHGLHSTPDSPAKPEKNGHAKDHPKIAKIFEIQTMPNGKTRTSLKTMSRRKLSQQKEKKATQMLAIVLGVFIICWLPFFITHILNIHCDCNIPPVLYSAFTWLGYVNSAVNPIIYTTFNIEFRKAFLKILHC
- assay_text: D2 mediated cAMP GloSensor assay
- Assay type: cell-based
- measurement_parameters: normalized to quinpirole; negative = inverse agonist; read-out: cAMP (GloSensor) Emax
readout_name: Emax (%)

[[record]]
query_smiles = "Clc1cccc(N2CCN(CCCCOc3ccc4cn[nH]c4c3)CC2)c1Cl"
study_target = "hD2 receptors (Homo sapiens (Human), UniProt P14416)"
readout_name = "Emax"
test_result = -29

[[record]]
query_smiles = "O=C1CCc2ccc(Oc3ccc(CN4CCN(c5cccc(Cl)c5Cl)CC4)cc3)cc2N1"
study_target = "hD2 receptors (Homo sapiens (Human), UniProt P14416)"
readout_name = "Emax"
test_result = -47

[[record]]
query_smiles = "O=c1ccc2ccc(OCCCN3CCCN(c4cccc(Cl)c4Cl)CC3)cc2[nH]1"
study_target = "hD2 receptors (Homo sapiens (Human), UniProt P14416)"
readout_name = "Emax"
test_result = 64

[[record]]
query_smiles = "Clc1cccc(N2CCN(CCCOc3ccc4scnc4c3)CC2)c1Cl"
study_target = "hD2 receptors (Homo sapiens (Human), UniProt P14416)"
readout_name = "Emax"
test_result = -16

[[record]]
query_smiles = "CC(C)Oc1ccccc1N1CCCN(CCCCOc2ccc3ccc(=O)[nH]c3c2)CC1"
study_target = "hD2 receptors (Homo sapiens (Human), UniProt P14416)"
readout_name = "Emax"
test_result = 32

[[record]]
query_smiles = "COc1ccccc1N1CCN(CCCCOc2ccc3c(n2)NC(=O)CC3)CC1"
study_target = "hD2 receptors (Homo sapiens (Human), UniProt P14416)"
readout_name = "Emax"
test_result = 17

[[record]]
query_smiles = "Clc1cccc(N2CCCN(CCCOc3ccc4scnc4c3)CC2)c1Cl"
study_target = "hD2 receptors (Homo sapiens (Human), UniProt P14416)"
readout_name = "Emax"
test_result = -26


###

List of EC50 values.
- study_target: hD2 receptors (Homo sapiens (Human))
- assay_text: D2 mediated cAMP GloSensor assay
- Format: cell-based
- measurement_parameters: HEK293T, isoproterenol-stimulated cAMP
readout_name: EC50 (nM)

[[record]]
molecule = "O=c1ccc2ccc(OCCCN3CCCN(c4cccc(Cl)c4Cl)CC3)cc2[nH]1"
readout_name = "EC50"
uom = "nM"
test_result = 13

[[record]]
molecule = "COc1ccccc1N1CCCN(CCCCOc2ccc3c(c2)NC(=O)CC3)CC1"
readout_name = "EC50"
uom = "nM"
test_result = 163

[[record]]
molecule = "O=C1NCCc2ccc(OCCCCN3CCN(c4cccc(Cl)c4Cl)CC3)cc21"
readout_name = "EC50"
uom = "nM"
test_result = 3700

[[record]]
molecule = "O=C1CCc2ccc(OCC3CCC(CN4CCN(c5cccc(Cl)c5Cl)CC4)CC3)cc2N1 (stereo not shown)"
readout_name = "EC50"
uom = "nM"
test_result = 46000


###

- study_target: 5HT1A (Homo sapiens (Human))
- assay_text: 5HT1A cAMP biosensor
- Assay type: cell-based
- measurement_parameters: text bound; read-out: 5HT1A EC50 (weak agonists)
pEC50: −log10 of the molar value.
readout_name: pEC50

[[record]]
query_smiles = "O=C1CCc2ccc(OCCCCN3CCCN(c4cccc(Cl)c4Cl)CC3)nc2N1"
test_result = "< 6.00"

